FYI, the data here is from patent US20260297085A1.

- target: human JAK1 kinase domain (JH1) (Homo sapiens)
- Construct: recombinantly generated catalytic kinase (also known as JH1) domain of human JAK1, JAK2, JAK3 and TYK2
- Sequence (P23458 875-1153 limits assumed): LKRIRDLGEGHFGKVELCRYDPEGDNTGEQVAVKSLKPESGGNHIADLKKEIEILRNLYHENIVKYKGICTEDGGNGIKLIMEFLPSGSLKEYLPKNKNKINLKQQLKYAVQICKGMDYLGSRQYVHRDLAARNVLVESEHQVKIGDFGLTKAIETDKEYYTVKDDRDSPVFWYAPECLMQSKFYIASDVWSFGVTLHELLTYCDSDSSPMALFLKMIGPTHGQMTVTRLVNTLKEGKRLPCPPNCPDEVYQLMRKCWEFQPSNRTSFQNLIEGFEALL
- method: JH1 biochemical assay for JAK1 (ADP-Glo kinase assay, recombinant JH1 catalytic domain, JAK3-342 peptide, 35 μM ATP)
- measurement.parameters: JH1 kinase domain, ADP-Glo
- Experimental: Compounds of the disclosure were assessed for their ability to inhibit TYK2, JAK1, JAK2, and JAK3 activity. The inhibitory properties of the compounds of the disclosure described herein can be evidenced by testing in any one of the following protocols. The kinase activity of recombinantly generated catalytic kinase (also known as JH1) domain of human JAK1, JAK2, JAK3 and TYK2 were evaluated in a plate-based assay using the ADP-Glo™ Kinase Assay platform. […]
Where a name gives a salt, the structure may show the parent alone.
Measured IC50 accompanies every entry in the list below.
measure: IC50

molecule	measure	reported.measurement
CC[C@@]1(C#N)CCN(c2ccnn3cc(-c4cnn(C)c4)cc23)C1=O (single isomer, unassigned)	IC50	> 10000 nM
[2H]C([2H])([2H])n1cc(-c2cn3ncc(F)c3c(N3C[C@@H](C)[C@@](C#N)(C4CC4)C3=O)n2)cn1	IC50	< 100 nM
CC[C@@H]1C[C@@](C#N)(C2CC2)C(=O)N1c1ccnn2cc(-c3cnn(C)c3)cc12	IC50	1000 to 5000 nM
Cc1cncc(-c2cc3c(N4C[C@@H](C)[C@@](C#N)(C5CC5)C4=O)ccnn3c2)c1	IC50	100 to 1000 nM
Cn1cc(-c2cc3c(N4CC[C@@](C#N)(C5CCC5)C4=O)ccnn3c2)cn1 (single isomer, unassigned)	IC50	5000 to 10000 nM
CC(=O)Nc1cncc(-c2cc3c(N4C[C@@H](C)[C@@](C#N)(C5CC5)C4=O)ccnn3c2)c1	IC50	100 to 1000 nM
C[C@@H]1CN(c2ccnn3cc(-c4cc(C(F)(F)F)ncn4)cc23)C(=O)[C@]1(C#N)C1CC1 [Example 121, trifluoroacetate]	IC50	1000 to 5000 nM

* * *

- target: human JAK2 kinase domain (JH1) (Homo sapiens, UniProt O60674)
- Construct: recombinantly generated catalytic kinase (also known as JH1) domain of human JAK1, JAK2, JAK3 and TYK2
- Sequence (O60674 849-1124 limits assumed): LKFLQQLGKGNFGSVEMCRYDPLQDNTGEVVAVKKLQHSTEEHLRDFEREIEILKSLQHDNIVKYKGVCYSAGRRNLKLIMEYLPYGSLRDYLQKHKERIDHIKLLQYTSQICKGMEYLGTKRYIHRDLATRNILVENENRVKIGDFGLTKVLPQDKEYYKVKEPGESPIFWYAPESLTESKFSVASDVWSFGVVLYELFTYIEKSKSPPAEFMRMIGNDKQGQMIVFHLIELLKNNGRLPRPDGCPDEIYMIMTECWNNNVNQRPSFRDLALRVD
- method: JH1 biochemical assay for JAK2 (ADP-Glo kinase assay, recombinant JH1 catalytic domain, JAK3-974 peptide, 15 μM ATP)
- measurement.parameters: JH1 kinase domain, ADP-Glo
pIC50: −log10 of the molar value. Counter-ions that a name gives are not always drawn.

molecule	target	pIC50
COc1cnc(-c2cc3c(N4C[C@@H](C)[C@@](C#N)(C5CC5)C4=O)ccnn3c2)cn1 [Example 132, trifluoroacetate]	human JAK2 kinase domain (JH1) (Homo sapiens, UniProt O60674)	5.30 to 6.00
Cn1cc(-c2cc3c(N4CC[C@@](C#N)(C5CC5)C4=O)ccnn3c2)cn1	human JAK2 kinase domain (JH1) (Homo sapiens, UniProt O60674)	6.00 to 7.00
C[C@@H]1CN(c2ccnn3cc(-c4cnn(C5COC5)c4)cc23)C(=O)[C@]1(C#N)C1CC1	human JAK2 kinase domain (JH1) (Homo sapiens, UniProt O60674)	> 7.00
N#C[C@@]1(C2CC2)CCN(c2ccnn3cc(-c4cnn(C(F)F)c4)cc23)C1=O	human JAK2 kinase domain (JH1) (Homo sapiens, UniProt O60674)	6.00 to 7.00
COC[C@]1(C#N)CCN(c2ccnn3cc(-c4cnn(C)c4)cc23)C1=O (single isomer, unassigned)	human JAK2 kinase domain (JH1) (Homo sapiens, UniProt O60674)	5.00 to 5.30
C[C@@H]1CN(c2ccnn3cc(-c4cncc(Cl)c4)cc23)C(=O)[C@]1(C#N)C1CC1	human JAK2 kinase domain (JH1) (Homo sapiens, UniProt O60674)	< 5.00
Cc1cnn2cc(-c3cnn(C)c3)nc(N3C[C@@H](C)[C@@](C#N)(C4CC4)C3=O)c12	human JAK2 kinase domain (JH1) (Homo sapiens, UniProt O60674)	5.30 to 6.00
C[C@@H]1CN(c2ccnn3cc(-c4cc(C(F)(F)F)nn4C)cc23)C(=O)[C@]1(C#N)C1CC1 [Example 107, trifluoroacetate]	human JAK2 kinase domain (JH1) (Homo sapiens, UniProt O60674)	5.30 to 6.00

* * *

- target: JAK1 kinase activity on STAT3 in TF1 cells (Homo sapiens, UniProt P23458)
- Sequence (P23458 whole entry): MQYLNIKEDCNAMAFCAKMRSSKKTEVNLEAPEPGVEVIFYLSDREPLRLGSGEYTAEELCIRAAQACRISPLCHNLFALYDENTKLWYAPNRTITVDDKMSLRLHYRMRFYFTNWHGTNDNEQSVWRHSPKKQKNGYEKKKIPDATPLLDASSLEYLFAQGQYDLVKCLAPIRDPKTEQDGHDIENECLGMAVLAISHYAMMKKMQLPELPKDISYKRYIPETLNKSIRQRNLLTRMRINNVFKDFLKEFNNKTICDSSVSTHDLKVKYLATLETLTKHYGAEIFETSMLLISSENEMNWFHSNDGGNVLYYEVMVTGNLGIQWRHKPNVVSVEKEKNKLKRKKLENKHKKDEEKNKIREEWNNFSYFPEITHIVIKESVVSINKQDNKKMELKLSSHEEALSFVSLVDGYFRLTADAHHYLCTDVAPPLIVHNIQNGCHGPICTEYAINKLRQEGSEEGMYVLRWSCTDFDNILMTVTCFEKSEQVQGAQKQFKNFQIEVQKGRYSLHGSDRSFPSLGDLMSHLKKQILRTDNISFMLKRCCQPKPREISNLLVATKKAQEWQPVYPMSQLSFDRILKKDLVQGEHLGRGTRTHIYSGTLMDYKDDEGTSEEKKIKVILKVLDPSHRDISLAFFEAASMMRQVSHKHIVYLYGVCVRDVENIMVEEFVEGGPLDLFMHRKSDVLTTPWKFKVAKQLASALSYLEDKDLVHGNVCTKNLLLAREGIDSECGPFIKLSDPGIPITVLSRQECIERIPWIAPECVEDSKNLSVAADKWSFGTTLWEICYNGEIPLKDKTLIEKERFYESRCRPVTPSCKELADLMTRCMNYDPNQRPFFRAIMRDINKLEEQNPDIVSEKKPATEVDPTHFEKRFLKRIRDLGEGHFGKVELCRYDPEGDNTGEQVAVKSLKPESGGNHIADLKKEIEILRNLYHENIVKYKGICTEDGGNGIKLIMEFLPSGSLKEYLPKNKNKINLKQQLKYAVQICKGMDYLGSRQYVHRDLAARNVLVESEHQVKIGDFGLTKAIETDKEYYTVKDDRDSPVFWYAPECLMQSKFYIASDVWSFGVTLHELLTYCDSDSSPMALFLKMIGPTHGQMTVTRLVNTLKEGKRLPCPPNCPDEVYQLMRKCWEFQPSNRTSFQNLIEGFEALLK
- method: pSTAT3 cell assay (MSD; TF1 cells, 30 ng/mL IL-6 stimulation)
- measurement.parameters: 30 ng/mL IL-6, 15 minutes
Structures can show the parent of a compound that is named as a salt.

molecule	target	IC50
C[C@@H]1CN(c2nc(-c3ccn(C)c(=O)c3)cn3nccc23)C(=O)[C@]1(C#N)C1CC1 [Example 261, trifluoroacetate]	JAK1 kinase activity on STAT3 in TF1 cells (Homo sapiens, UniProt P23458)	1 to 5 µM
C[C@@H]1CN(c2ccnn3cc(-c4ccc5c(cnn5C)c4)cc23)C(=O)[C@]1(C#N)C1CC1	JAK1 kinase activity on STAT3 in TF1 cells (Homo sapiens, UniProt P23458)	0.1 to 1 µM
CC(=O)Nc1cc(-c2cn3nccc3c(N3C[C@@H](C)[C@@](C#N)(C4CC4)C3=O)n2)ccn1	JAK1 kinase activity on STAT3 in TF1 cells (Homo sapiens, UniProt P23458)	0.1 to 1 µM
C[C@@H]1CN(c2nc(-c3cnn(C4COC4)c3)cn3ncc(F)c23)C(=O)[C@]1(C#N)C1CC1	JAK1 kinase activity on STAT3 in TF1 cells (Homo sapiens, UniProt P23458)	1 to 5 µM
CNC(=O)c1cc(-c2cn3nccc3c(N3C[C@@H](C)[C@@](C#N)(C4CC4)C3=O)n2)ccn1 [Example 252, trifluoroacetate]	JAK1 kinase activity on STAT3 in TF1 cells (Homo sapiens, UniProt P23458)	1 to 5 µM
C[C@@H]1CN(c2nc(-c3cnc4c(c3)CC(=O)N4)cn3nccc23)C(=O)[C@]1(C#N)C1CC1	JAK1 kinase activity on STAT3 in TF1 cells (Homo sapiens, UniProt P23458)	1 to 5 µM
N#C[C@@]1(C2CC2)CCN(c2ccnn3cc(-c4cnn(C(F)F)c4)cc23)C1=O	JAK1 kinase activity on STAT3 in TF1 cells (Homo sapiens, UniProt P23458)	1 to 5 µM

* * *

- target: human JAK3 kinase domain (JH1) (Homo sapiens)
- Construct: recombinantly generated catalytic kinase (also known as JH1) domain of human JAK1, JAK2, JAK3 and TYK2
- Sequence (P52333 822-1111 limits assumed): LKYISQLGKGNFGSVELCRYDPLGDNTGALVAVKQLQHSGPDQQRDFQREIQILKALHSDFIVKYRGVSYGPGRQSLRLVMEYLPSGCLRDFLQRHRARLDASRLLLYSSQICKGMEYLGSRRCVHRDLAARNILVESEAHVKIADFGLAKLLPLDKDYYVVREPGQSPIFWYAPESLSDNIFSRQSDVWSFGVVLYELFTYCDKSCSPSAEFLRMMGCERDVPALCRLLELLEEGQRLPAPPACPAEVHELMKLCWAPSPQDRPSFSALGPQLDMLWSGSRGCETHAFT
- method: JH1 biochemical assay for JAK3 (ADP-Glo kinase assay, recombinant JH1 catalytic domain, JAK3-974 peptide, 4 μM ATP)
- measurement.parameters: JH1 kinase domain, ADP-Glo
Structures can show the parent of a compound that is named as a salt.
Examples of molecules with documented IC50 follow.
measure: IC50

molecule	reported.measurement
Cc1nc(C)c(-c2cn3nccc3c(N3C[C@@H](C)[C@@](C#N)(C4CC4)C3=O)n2)s1 [Example 209]	< 0.1 µM
C[C@@H]1CN(c2nc(-c3cnn(C)c3)cn3ncc(F)c23)C(=O)[C@]1(C#N)C1CC1 [Example 187]	< 0.1 µM
CCc1ncccc1-c1cc2c(N3C[C@@H](C)[C@@](C#N)(C4CC4)C3=O)ccnn2c1 [Example 178, trifluoroacetate]	5 to 10 µM
C[C@@H]1CN(c2ccnn3cc(-c4cnn(C5CCCC5)c4)cc23)C(=O)[C@]1(C#N)C1CC1 [Example 170]	< 0.1 µM
C[C@@H]1CN(c2ccnn3cc(-c4ccc5cncn5c4)cc23)C(=O)[C@]1(C#N)C1CC1 [Example 51]	0.1 to 1 µM

* * *

# IC50 per record follows
- target: human JAK1 kinase domain (JH1) (Homo sapiens)
- Construct: recombinantly generated catalytic kinase (also known as JH1) domain of human JAK1, JAK2, JAK3 and TYK2
- method: JH1 biochemical assay for JAK1 (ADP-Glo kinase assay, recombinant JH1 catalytic domain, JAK3-342 peptide, 35 μM ATP)
- measurement.parameters: JAK1 JH1, ADP-Glo
Where a name gives a salt, the structure may show the parent alone.
measure: IC50

compound	reported.measurement
Cc1cc(-c2cc(N3C[C@@H](C)[C@@](C#N)(C4CC4)C3=O)c3ccnn3c2)n[nH]1 [Example 318]	100 to 1000 nM
C[C@@H]1CN(c2nc(-c3cc[nH]n3)cn3nccc23)C(=O)[C@]1(C#N)C1CC1 [Example 232, trifluoroacetate]	< 100 nM
C[C@@H]1CN(c2nc(-c3ccc(=O)n(C)c3)cn3nccc23)C(=O)[C@]1(C#N)C1CC1 [Example 245]	< 100 nM
C[C@@H]1CN(c2nc(-c3cnn(C4CC5(COC5)C4)c3)cn3ncc(F)c23)C(=O)[C@]1(C#N)C1CC1 [Example 298]	< 100 nM
C[C@@H]1CN(c2nc(-c3cnn(C4CC(C#N)C4)c3)cc3ncsc23)C(=O)[C@]1(C#N)C1CC1 (stereo partly shown) [Example 356]	< 100 nM
C[C@@H]1CN(c2cccn3nc(-c4cnn(C)c4)cc23)C(=O)[C@]1(C#N)C1CC1 [Example 272]	> 10000 nM
C[C@@H]1CN(c2cc(-c3cnn(C)c3)cc3ncnn23)C(=O)[C@]1(C#N)C1CC1 [Example 285]	> 10000 nM
C[C@@H]1CN(c2ccnc3cc(-c4cnn(C)c4)oc23)C(=O)[C@]1(C#N)C1CC1 [Example 268]	100 to 1000 nM
C[C@@H]1CN(c2nc(-c3cnn(C45CC(C#N)(C4)C5)c3)cn3ncc(F)c23)C(=O)[C@]1(C#N)C1CC1 [Example 297]	< 100 nM
C[C@@H]1CN(c2ccnn3cc(-c4cnn(C56CC(C#N)(C5)C6)c4)cc23)C(=O)[C@]1(C#N)C1CC1 [Example 320]	100 to 1000 nM
C[C@@H]1CN(c2n[nH]c3ncc(-c4cnn(C)c4)cc23)C(=O)[C@]1(C#N)C1CC1 [Example 274]	> 10000 nM
C[C@@H]1CN(c2nc(-c3ccc(F)nc3)cn3nccc23)C(=O)[C@]1(C#N)C1CC1 [Example 243, trifluoroacetate]	1000 to 5000 nM
CNC(=O)c1ccc(-c2cn3nccc3c(N3C[C@@H](C)[C@@](C#N)(C4CC4)C3=O)n2)cn1 [Example 227, trifluoroacetate]	< 100 nM
C[C@@H]1CN(c2nc(-c3cccc(F)n3)cn3nccc23)C(=O)[C@]1(C#N)C1CC1 [Example 255, trifluoroacetate]	< 100 nM
C[C@@H]1CN(c2ccnn3cc(-n4cc(CC#N)cn4)cc23)C(=O)[C@]1(C#N)C1CC1 [Example 339]	100 to 1000 nM
C[C@@H]1CN(c2nc(-c3cccnc3F)cn3nccc23)C(=O)[C@]1(C#N)C1CC1 [Example 226, trifluoroacetate]	5000 to 10000 nM
C[C@@H]1CN(c2nc(-c3cnn(C4CN(C)C4)c3)cc3ncsc23)C(=O)[C@]1(C#N)C1CC1 [Example 358]	< 100 nM
C[C@@H]1CN(c2nc(-c3cccnc3OC(F)F)cn3nccc23)C(=O)[C@]1(C#N)C1CC1 [Example 256, trifluoroacetate]	> 10000 nM
C[C@@H]1CN(c2nc(-c3cnc4c(c3)OCC(=O)N4C)cn3nccc23)C(=O)[C@]1(C#N)C1CC1 [Example 235, trifluoroacetate]	< 100 nM
Cc1c(-c2cn3ncc(F)c3c(N3C[C@@H](C)[C@@](C#N)(C4CC4)C3=O)n2)cnn1C [Example 221]	100 to 1000 nM
C[C@@H]1CN(c2nc(-c3cnc(N(C)C)nc3)cn3nccc23)C(=O)[C@]1(C#N)C1CC1 [Example 264, trifluoroacetate]	100 to 1000 nM
C[C@@H]1CN(c2nc(-c3ccc(S(C)(=O)=O)nc3)cn3nccc23)C(=O)[C@]1(C#N)C1CC1 [Example 257, trifluoroacetate]	< 100 nM
